These entries and their values trace back to BigSolDB 2.1.

# details: in isobutanol, 318.15 K
measured-attribute: solubility (mole fraction)
Numbers only.

## Input Which measured solubility (mole fraction) value corresponds to C=CC(=O)NC(C)(C)CC(C)=O ?
## Output 0.767

###

# details: in ethyl formate, 278.25 K
measured-attribute: solubility (mole fraction)
Answers are plain numbers.

## Input Item under review: C=CC(=O)NC(C)(C)CC(C)=O . Reported solubility (mole fraction)?
## Output 0.23

###

# details: in n-hexanol, 313.65 K
measured-attribute: solubility (mole fraction)
Give bare numbers.

## Input Entry C=CC(=O)NC(C)(C)CC(C)=O : reported solubility (mole fraction) = ?
## Output 0.696

###

# details: in ethyl acetate, 318.15 K
measured-attribute: solubility (mole fraction)
Answers are plain numbers.

## Input Data request, read-out solubility (mole fraction), for C=CC(=O)NC(C)(C)CC(C)=O
## Output 0.745
